- study target: T1, human CD3e/d (human, UniProt P07766 23-126; P04234 22-105)
- T1 construct: Bought soluble protein; also called hCD3e/d; human CD3/ed (Sino CT038-H2508H)
- T1 sequence (P07766 23-126, chain 1 of 2): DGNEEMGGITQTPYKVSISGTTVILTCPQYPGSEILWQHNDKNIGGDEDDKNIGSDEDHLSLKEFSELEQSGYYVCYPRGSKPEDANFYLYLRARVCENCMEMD
- T1 sequence (P04234 22-105, chain 2 of 2): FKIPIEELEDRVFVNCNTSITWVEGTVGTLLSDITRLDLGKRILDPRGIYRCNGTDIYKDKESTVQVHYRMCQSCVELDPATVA
- test summary: SPR (Carterra LSA), mAb on chip
measured property: pKd
Quick note: pKd values are minus log10 of concentrations in mol/L.

Below, each entry is followed by its recorded pKd result.
Inquiry: Requested field: pKd. Item: mAb 141 (antibody, V domains shown, VH and VL only) VH: QVQLVQSGAEVKKPGASVKVSCKASGYTFTSYYIHWVRQAPGQGLDWMGIINPSGGITGYAQKLQGRVTMTRDTSTTTVYMELSSLRSDDTAVYYCARGVRGNYYYYYMDVWGKGTTVTVSS VL: EIVLTQSPDFQSVTPKEKVTITCRASQSIGSKLHWYQQKPDQSPKLLIKYASQSFSGVPSRFSGSGSGTDFNLTINSLEAEDAATFYCHQSSGLPYTFGQGTKLEIK
Reply text: 7.04

Inquiry: Query (binder): mAb 222 (antibody, V domains shown, VH and VL only) VH: QVQLVESGGGVVQPGRSLRLSCAASGFTFSGYGMHWVRQAPGKGLEWVAIIYYNGKKEYYADSVKGRFTISRDNSKNTVYLQMNSLRAEDTAVYYCTRGEGYNWFDPWGQGTLVTVSS VL: KIVMTQSPATLSVSPGERATLSCRASQSVSSNLAWYQQKPGQAPRLLIYGASTRATGIPARFSGSGSGTEFTLTISSLQSEDFAVYYCKQYNNWPLTFGGGTKVEIK ; field requested: pKd
Reply text: 7.80

Let us examine a further case.
Inquiry: Which pKd value belongs to mAb 116 (antibody, V domains shown, VH and VL only) VH: EVQLVESGGGLVKTGGSLRLSCVASGFSFKKAWMNWVRQAPGKGLEWVGRIKRNSDGGTTDYAAPVKGRFTLSRDDSKNTLYLQMNSLKTEDTAVYYCTTLDSSSWYVGYYYMDVWGKGTTVTVSS VL: DIQMTQSPFSVSASVGDRVTITCRASQDINNWLAWYQQKPGKAPKILIYTASSLQSGVPSRFSGSGSGTDFTLTISSLQPEDFATYYCQQAHSLPITFGQGTRLEIK ?
Reply text: 6.98

Source listed as patent US20230295310A1.
